Biological target: T1, human IL-17A (human, UniProt Q16552 20-155, limits assumed)
T1 construct: Bought from R&D Systems; also called IL-17 antigen (human IL17A)
T1 sequence (looked up): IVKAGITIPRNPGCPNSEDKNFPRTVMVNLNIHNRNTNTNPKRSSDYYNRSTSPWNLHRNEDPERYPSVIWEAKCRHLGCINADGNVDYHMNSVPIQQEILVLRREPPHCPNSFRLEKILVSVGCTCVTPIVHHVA
Experiment: BLI (Octet Red96), antibody captured on AHC biosensor, human IL-17A in solution, 1:1 model, 25 C
koff for assorted binders
Write the value in s⁻¹ as a bare number.

binder: PP10760 (antibody, human IgG4 S228P, kappa, V domains shown, Humanized, human IgG4/kappa; also called VH6665/VL6665) VH: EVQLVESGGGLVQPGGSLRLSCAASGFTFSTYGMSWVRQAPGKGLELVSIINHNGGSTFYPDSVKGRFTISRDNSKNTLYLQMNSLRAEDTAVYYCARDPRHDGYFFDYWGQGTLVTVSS VL: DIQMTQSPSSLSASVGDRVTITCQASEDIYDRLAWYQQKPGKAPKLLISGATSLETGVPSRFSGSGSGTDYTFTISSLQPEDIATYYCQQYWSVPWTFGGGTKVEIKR
result: 0.00015

Turning now to a further binder:
-- ask Give koff for PP10763 (antibody, human IgG4 S228P, kappa, V domains shown, Humanized, human IgG4/kappa; also called VH6666/VL6665) VH: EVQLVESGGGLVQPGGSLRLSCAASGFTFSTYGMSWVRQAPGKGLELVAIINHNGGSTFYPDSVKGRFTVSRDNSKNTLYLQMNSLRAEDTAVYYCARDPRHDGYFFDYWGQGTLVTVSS VL: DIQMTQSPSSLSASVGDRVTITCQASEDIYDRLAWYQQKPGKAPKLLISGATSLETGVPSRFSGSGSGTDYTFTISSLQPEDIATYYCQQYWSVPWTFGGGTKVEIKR
-- reply 0.00016
